Listed here: items and their measured GI50.
- System: OVCAR-4
- TEST METHOD NOTES: NCI tumour cell line growth inhibition, 48 h
Calls of active or inactive are those of the source. No stated cut-off is given here; in the data, active = GI50 up to about 1.1 µM and inactive = higher.
MEASUREMENT NAME: GI50

- COc1cc2c(cc1OC)-c1[nH]c3ccc(C#N)cc3c1CC(=O)N2: > 30.1 µM (inactive)
- Cc1nn(C(=O)c2ccc(Cl)cc2)c2c1C(c1ccc([N+](=O)[O-])cc1)SC(=N)N2 (stereo not given): > 10 µM (inactive)
- Clc1ccc2oc(CCC3CCCCC3)nc2c1: 27.4 µM (inactive)
- Cc1c[nH]c(C(=O)O)c1-c1ccc2c(-c3ccccc3)nc3ccccc3n12: 41 µM (inactive)
- CC1(C(O)c2ccccc2)CN(C(C)(C)C)C(=O)/C1=C\Sc1ccccc1 (stereo not given): 27.4 µM (inactive)
- Cc1ccc(Cc2n[nH]c(=O)n2N2C(=O)c3ccccc3C2=O)cc1: > 100 µM (inactive)
- Cn1c2c(c3ccccc31)CCN=C2C1CCCOC1=O (stereo not given): > 100 µM (inactive)
- CC(C)N(CCn1c2c3ccccc3ccc2c2oc(=O)c3ccccc3c21)C(C)C: > 100 µM (inactive)
- O=C(N/N=C(COc1cccc(Cl)c1)\N=C\c1cccnc1)c1ccncc1: 84.7 µM (inactive)
- CC12C(=CC(=O)CC1SCCS(=O)(=O)O)C(C#N)=C(N)N2c1ccc(Cl)c(Cl)c1 (stereo not given): > 100 µM (inactive)

---

- System: HL-60
- TEST METHOD NOTES: NCI tumour cell line growth inhibition, 48 h
Activity calls are given as the source filed them. Rule as the data show it: active = GI50 up to about 1.1 µM and inactive = higher.
MEASUREMENT NAME: GI50

• Cc1ccc(-c2c3nc(c(-c4ccc(C)cc4)c4ccc([nH]4)c(-c4ccc(OCC5COC(C)(C)O5)cc4)c4nc(c(-c5ccc(C)cc5)c5ccc2[nH]5)C=C4)C=C3)cc1 (centres undefined) = > 10 µM (inactive)
• O=C(CCCC(=O)N1CC(CCl)c2ccc([N+](=O)[O-])cc21)N1CC(CCl)c2ccc([N+](=O)[O-])cc21 (centres undefined) = > 100 µM (inactive)
• C/C(CCn1[nH]c(=O)ccc1=O)=N\NC(=O)C(=O)NN = > 100 µM (inactive)
• COC12c3ccccc3-c3ccccc3C1[C@@H](C(=O)O)[C@H]2C(=O)O (some centres undefined) = > 10 µM (inactive)

---

- System: SK-MEL-5
- TEST METHOD NOTES: NCI tumour cell line growth inhibition, 48 h
Activity calls are given as the source filed them. Cut-off read from the data, not from the text of the source: active = GI50 up to about 1.1 µM and inactive = higher. Where a SMILES comes first, the peptide text is derived from it. The star is where a group is joined. Cbz = O=C(OCc1ccccc1)*; Boc = CC(C)(C)OC(=O)*; Bn = c1ccc(C*)cc1
Outcome codes: YES = active, NO = inactive

• CC(C)(C)OC(=O)NC(Cc1ccc(OCc2ccccc2)cc1)C(=O)NC(CCCCNC(=O)OCc1ccccc1)C(=O)O (centres undefined) (Boc-Tyr(Bn)-Lys(Cbz)-OH; configuration not given here) = NO
• COc1cccc(/C=N/[N-]C(=S)Nc2ccccc2)c1[O-].O.[Zn+2] = NO
• CC(=O)Oc1cccc2c1C(=O)c1c(OC(C)=O)cc(C)cc1C2=O = NO
• O=c1c(C(c2ccc([N+](=O)[O-])cc2)c2c(O)oc3ccccc3c2=O)c(O)oc2ccccc12 = NO
• Cc1ccc(Cc2n[nH]c(=O)n2N2C(=O)c3ccccc3C2=O)cc1 = NO
• COC12c3ccccc3-c3ccccc3C1[C@@H](C(=O)O)[C@H]2C(=O)O (some centres undefined) = NO
• CCO/C=C1\N=C(c2ccc(Cl)c(Cl)c2)OC1=O = NO
• CCN(CC)Cc1ccc(C(=S)Nc2ccc(Cl)cc2)s1 = NO
• C/C(=N\NC(=S)Nc1ccc([N+](=O)[O-])cc1)c1nc2cccnc2[nH]1 = YES

---

- System: HCT-15
MEASUREMENT NAME: GI50 (µM)

- O=Nc1c(-c2c(O)[nH]c3ccc(I)cc23)[nH]c2ccccc12: 3.21
- COc1cccc2c1C(=O)c1c(O)c3c(c(O)c1C2=O)CC(O)(C(O)CO)CC3OC1CC(N2CCOCC2)C(O)C(C)O1 (stereo not given): 0.00353

---

- Test system: SK-MEL-5
- TEST METHOD NOTES: NCI tumour cell line growth inhibition, 48 h
The source made the active and inactive calls. Rule as the data show it: active = GI50 up to about 1.1 µM and inactive = higher.
Examples of compounds with documented GI50 follow.
MEASUREMENT NAME: GI50

- C=C=CC(NC(=O)c1ccccc1)(C(=O)O)C(F)(F)F (stereo not given): > 100 µM (inactive)
- CCOC(=O)CCC(NC(=O)c1ccc(Nc2nc3ccccc3nc2C(=O)OCC)s1)C(=O)OCC (stereo not given): > 100 µM (inactive)
- COc1cc2c(cc1OC)-c1[nH]c3ccc(C#N)cc3c1CC(=O)N2: 3.23 µM (inactive)
- C/C(CC(O)(C(F)(F)F)C(F)(F)F)=N\O: > 10 µM (inactive)
- CC(C)[C@@H]1CC[C@@H](C)C[C@H]1OC(=O)/C=C1/C2C=CC(O2)C1C(=O)O[C@@H]1C[C@H](C)CC[C@H]1C(C)C (stereo not given in full): > 100 µM (inactive)
- O=C(n1c2ccccc2c2nnc(S)nc21)C(F)(F)F: > 100 µM (inactive)
- CCC1(OC(=O)CN2CCN(CCO)CC2)C(=O)OCc2c1cc1n(c2=O)Cc2cc3ccccc3nc2-1 (stereo not given): 0.281 µM (active)
- Cc1ccccc1/N=N/c1ccc(N/N=C2/CCCNC2=O)c(C)c1: 45.2 µM (inactive)
- CO/C(=N\N=C\c1cc(OC)ccc1OC)c1ccncc1: > 10 µM (inactive)
- CCOC(=O)C1CCCCN1CCc1c[nH]c2ccccc12 (stereo not given): 80.9 µM (inactive)
- O=C(O)CCC(NC(=O)/C(=C/c1ccccc1)NC(=O)c1ccccc1)C(=O)O (stereo not given): > 100 µM (inactive)
- O=C1C([P+](c2ccccc2)(c2ccccc2)c2ccccc2)=C([O-])C(=Cc2ccc(Cl)c(Cl)c2)C([O-])=C1[P+](c1ccccc1)(c1ccccc1)c1ccccc1: 2.34 µM (inactive)
- O=c1c2cc([N+](=O)[O-])ccc2n2n1CCCCC2: > 100 µM (inactive)
- O=C(CC(=O)N1N=C(N(c2ccccc2)c2ccccc2)CC1c1ccccc1)Nc1ccccc1 (stereo not given): > 100 µM (inactive)
- Cc1cn(C2C=CC(COP(=O)(OCc3ccc([N+](=O)[O-])o3)N(C)CCCCCl)O2)c(=O)[nH]c1=O (stereo not given): 1.22 µM (inactive)
- CC(C)[Si](OC1=CCC[C@H]2NC(=O)[C@@H](Cc3ccccc3)[C@@]12C)(C(C)C)C(C)C: 3.37 µM (inactive)
- CNc1ccc([S+]([O-])Nc2ccc(OC)cc2)cc1 (stereo not given): 19.3 µM (inactive)
- COC(=O)c1nn(C(=N)c2ccc(Cl)cc2)c2c1CCCCC2: > 100 µM (inactive)
- CC(=O)Oc1cc2c(n(C)c1=O)-c1ccccc1C2: 85.3 µM (inactive)
- O=C(/C=C/c1ccccc1O)CC(=O)/C=C/c1ccccc1O: 5.32 µM (inactive)

---

- Test system: RXF 631
- TEST METHOD NOTES: NCI tumour cell line growth inhibition, 48 h
Active and inactive are the calls of the source. No stated cut-off is given here; in the data, active = GI50 up to about 1.1 µM and inactive = higher.
Labels: T (active), F (inactive)

* N=C(Nc1nc(-c2ccccn2)cc2ccccc12)c1ccccn1 | T
* CC(CCc1ccc2c(c1)c(N)c1ccc(N)cc1[n+]2[O-])CC(C)(C)C (stereo not drawn) | F
* CC1(C)c2ccccc2N2C(c3ccccc3)=NOC21C (stereo not drawn) | F
* Cc1cc2c(cc1C)[n+]([O-])c(C(=O)/C=C/c1ccc3c(c1)OCO3)c(C)[n+]2[O-] | F
* COc1ccc2c(c1)[n+]([O-])c(/C(C)=N/NC(=O)CC#N)c[n+]2[O-] | F
* COC(=O)c1ccccc1NC(=O)C(=O)CC(=O)CC(c1ccccc1)c1c(O)c2ccccc2oc1=O (stereo not drawn) | F
* Cc1ccc(/C=C2\CCCCC2=O)cc1 | F
* COc1ccc(Cc2c3cc(OC)c(OC)cc3cc[n+]2C)cc1 | F

---

- Tested on: UO-31
- TEST METHOD NOTES: NCI tumour cell line growth inhibition, 48 h
The source made the active and inactive calls. Cut-off read from the data, not from the text of the source: active = GI50 up to about 1.1 µM and inactive = higher.
Possible outcomes: true (1) = active, false (0) = inactive

- N#Cc1c(-c2ccccc2)c(/C=N/c2ccc(F)cc2)c(=O)n2c1[nH]c1ccccc12: false (0)
- c1ccc(C(c2ccccc2)c2ccccn2)cc1: false (0)
- O=Nc1c(-c2c(O)[nH]c3ccc(I)cc23)[nH]c2ccccc12: false (0)
- OCCNCCOc1ccc(/C(=C(/Cl)c2ccccc2)c2ccccc2)cc1: false (0)
- Cc1c2c(n(CCc3ccc(Cl)cc3)c1C)NN=C(C#N)S2(=O)=O: false (0)
- O=c1[nH]/c(=C/c2cccs2)c(=O)[nH]/c1=C/c1ccc(OCc2ccccc2)cn1: true (1)
- CC(NC(=O)OCc1ccccc1)NC(=O)OC(C)(C)C (stereo not given): false (0)
- Cc1ccc(-c2c3nc(c(-c4ccc(C)cc4)c4ccc([nH]4)c(-c4ccc(OCC5COC(C)(C)O5)cc4)c4nc(c(-c5ccc(C)cc5)c5ccc2[nH]5)C=C4)C=C3)cc1 (stereo not given): false (0)
- CNc1cc(Cl)ccc1C(=O)N1CCC[C@H]1CO: false (0)
- NS(=O)(=O)c1ccc(/C=C/c2ccc(F)cc2)cc1: false (0)
